test system: E. coli ATCC28922; test: MIC determination by microplate dilution, E. coli human strain; format: cell-based, Escherichia coli; details: Escherichia coli, ATCC28922, Gram-negative, Mueller-Hinton medium, 24 h, 37° C.
Measured Quantity: MIC (µg/mL)
Reply with just the number (in µg/mL).

I would be grateful if you could share the reported MIC for COC(=O)CC[C@@H](C)[C@H]1CCC2C3C(C[C@H](O)[C@@]21C)[C@@]1(C)CC[C@H](NCCCN(C)CCCN)C[C@H]1C[C@H]3O (some centres unmarked) .
27

I would be grateful if you could share the reported MIC for COC(=O)CC[C@@H](C)[C@H]1CCC2C3C(CC[C@@]21C)[C@@]1(C)CC[C@H](NCCCNCCCNCCCN)CC1C[C@@H]3O (stereo partly drawn) [Compound (12), methyl 3β-norsperminoursodeoxycholate] .
4

I would be grateful if you could share the reported MIC for COC(=O)CC[C@@H](C)[C@H]1CCC2C3C(CC[C@@]21C)[C@@]1(C)CC[C@H](NCCCNCCCN)CC1C[C@H]3O (stereo partly drawn) [(9), methyl 3β-norspermidinochenodeoxycholate] .
26

I would be grateful if you could share the reported MIC for CC(C)OC(=O)CC[C@@H](C)[C@H]1CCC2C3CCC4C[C@@H](NCCCNCCCNCCCN)CC[C@]4(C)C3CC[C@@]21C (stereo partly drawn) [Compound (15), isopropyl 3β-norsperminolithocholate] .
14

I would be grateful if you could share the reported MIC for COC(=O)CC[C@@H](C)[C@H]1CCC2C3CCC4C[C@@H](NCCNCCNCCNCCNCCN)CC[C@]4(C)C3CC[C@@]21C (some centres unmarked) .
30
